Test: gradient 5% acetonitrile 3 min, to 50% in 2 min, to 85% in 15 min, held 3 min, 100 µL/min
Conditions: column: Zorbax Extend-C18 2.1 x 50 mm; eluents: water / acetonitrile, 0.1% formic acid
Below, each of the molecules is paired with its reported RP-LC retention time value.

MOLECULE | RP-LC retention time
Cc1oc(-c2ccccc2)nc1Cc1noc(COc2ccc(F)cc2)n1 | 1100 s
CC1CCCN(CC2CCN(S(=O)(=O)CCc3ccccc3)CC2)C1 (centres undefined) | 677 s
CS(=O)(=O)N1CCN(C(=O)CCC2CCN(c3cc(NC4CC4)ncn3)CC2)CC1 | 606 s
Cc1nn(CC(=O)NCc2ccc(F)cc2F)c(=O)c2nc(-c3ccccc3)sc12 | 914 s
COc1ccc(-c2nocc2CCC(=O)O)cc1 | 712 s
CCOc1ccc(CNC2CCN(c3ccc(C(=O)NC4CC4)cn3)C2)cc1 (centres undefined) | 578 s
CCN(CC)C(=O)c1cnc2nc(C)ccc2c1Nc1ccc(C(C)=O)cc1 | 589 s
COc1ccc(NC(=O)C2CCCN(c3nnc4ccc(Cl)cn34)C2)c(OC)c1 (centres undefined) | 701 s
COc1ccc(N2CC(c3nc(-c4ccc5c(c4)oc(=O)n5C(C)C)no3)CC2=O)cc1 (centres undefined) | 915 s

---

Test: gradient 5% acetonitrile 3 min, to 50% in 2 min, to 85% in 15 min, held 3 min, 100 µL/min
Settings: column: Zorbax Extend-C18 2.1 x 50 mm; eluents: water / acetonitrile, 0.1% formic acid

COMPOUND | RP-LC retention time (s)
O=C(Nc1ccc(F)cc1)c1cn(CC(O)c2ccc3c(c2)OCO3)nn1 (stereo not drawn) | 777
O=C1CC(C(F)(F)F)c2c(c(C(=O)O)cn2-c2ccccc2Cl)N1 (stereo not drawn) | 737
COCCNC(=O)C1CCCN(C(=O)Nc2ccc(NC(=O)Nc3ccccc3)cc2)C1 (stereo not drawn) | 676
Cc1oc(-c2[nH]ncc2C(=O)N2CCCCC2)cc1S(=O)(=O)Nc1cccc(Cl)c1 | 796
COc1ccc(S(=O)(=O)N2CCC(C(=O)N[C@@H](C)C(=O)O)CC2)cc1 | 652
COC(=O)c1cccc(Nc2c(-c3ccc(C)cc3)nc3cnccn23)c1 | 849
Cc1ccc(Nc2c(-c3ccc(Br)cc3)nc3cnccn23)cc1 | 1100
COc1ccc(NC(=O)N2CCN(c3cc(-c4ccc(OC)c(OC)c4)ncn3)CC2)cc1 | 620
O=C(NCc1csc(-c2cccs2)n1)C1CCN(S(=O)(=O)c2ccc(F)cc2)CC1 | 892
COCCNC(=O)c1ccc(CS(=O)Cc2ccccc2Cl)o1 (stereo not drawn) | 664
O=C(Nc1ccc2c(c1)OCCO2)N1C[C@@H]2C[C@H]1C[C@@H]2NS(=O)(=O)c1ccccc1 | 678
O=C(Cc1csc2nc(-c3ccccc3)cn12)N1CCc2ccccc2C1 | 826
CCn1cnc(S(=O)(=O)N2CCCC(C(=O)Nc3ccc(Cl)cc3C)C2)c1 (stereo not drawn) | 795
CC(=O)N1c2ccc(S(=O)(=O)N3CCC(C(=O)Nc4cccnc4)CC3)cc2CC1C (stereo not drawn) | 617
CCn1cnc2ccc(-c3noc(COc4ccccc4)n3)cc21 | 742
CC1=C(c2ccccc2)S(=O)(=O)N=C1N1CCCN(C(=O)NCCC(C)C)CC1 | 818
CCc1cc(C(=O)Nc2ccc(OC)cc2)nc2cc(-c3ccccn3)nn12 | 1000
COc1cccc(-c2nc(C3CCN(S(=O)(=O)c4ccc(Cl)cc4)CC3)no2)c1 | 1170
Cc1ccc(-c2ncc(C(=O)Nc3cc(F)ccc3F)c(-c3ccncc3)n2)cc1 | 988
CCOc1ccc(-c2noc(-c3nn(-c4ccc(F)cc4)c(=O)c4ccccc34)n2)cc1OC | 1240
CCOC(=O)c1cnc2nc(C)ccc2c1Nc1cc(OC)cc(OC)c1 | 720
CCCc1cc(C2CCCN2C(=O)Nc2ccc(C(=O)OC)cc2)no1 (stereo not drawn) | 807
CCC1CN2C=NC(N3CCN(C(=O)Nc4ccc(OC)cc4)CC3)=CC2=N1 (stereo not drawn) | 600
Cc1cccc(CNC(=O)c2cc(N(C)C)n3nccc3n2)c1 | 840
Cc1cc2[nH]c(C(=O)Nc3cc(Cl)ccc3F)c(CN3CCOCC3)c2s1 | 892
CCN(CC)C(=O)c1cc(=O)[nH]c2c(C)cccc12 | 657
Fc1ccc(-n2cc(-c3noc(-c4cccc(F)c4)n3)nn2)cc1 | 1050
Cc1nc(-c2ccccc2)sc1C(=O)Nc1nc(-c2ccc(F)cc2)c(C)s1 | 1280
CCn1c(=O)c2ccccc2n(Cc2nc(-c3ccccc3C)no2)c1=O | 1070
CCn1cc(-c2nc(CC(=O)Nc3ccc(OC)c(Cl)c3)cs2)c2cccnc21 | 918
COc1cccc(-c2nc3sc(C(=O)N(C)C)c(C)n3c2NC(C)(C)C)c1 | 773
COCCOC(=O)C1=C(C)NC(=O)NC1c1cn(-c2ccccc2)nc1-c1cccs1 (stereo not drawn) | 742
CC1=NN(c2ccccc2)C(=O)C1C(=O)c1ccccc1Br (stereo not drawn) | 1040
COc1ccc(Cl)cc1NC(=O)NC1CCN(c2ccccc2)C1=O (stereo not drawn) | 873
CC(=O)NCCc1csc(C2CCN(C(=O)C3CCC3)CC2)n1 | 625
O=C(C1CCOC1)N1CCCn2nc(-c3cccc(Cl)c3)cc2C1 (stereo not drawn) | 771
Cc1cccc(CNC(=O)C2CCN(S(=O)(=O)c3ccc(-c4cc(C)[nH]n4)o3)CC2)c1 | 816
COCCn1ccc2nc(C)c(C(=O)NCCCc3ccco3)cc2c1=O | 665

---

Test: gradient 5% acetonitrile 3 min, to 50% in 2 min, to 85% in 15 min, held 3 min, 100 µL/min
Conditions: column: Zorbax Extend-C18 2.1 x 50 mm; eluents: water / acetonitrile, 0.1% formic acid
# RP-LC retention time >= 800 s gives 1, anything below gives 0

COMPOUND | CLASSIFICATION
Cc1cc(=O)n(CC(=O)N2CCCc3ccccc32)c(N2CCCCC2)n1 | 0
Cc1ccc(CNC(=O)C2(C)CCCCC(=O)N2)cc1 (centres undefined) | 0
O=C(NCCn1nc(-c2cccs2)ccc1=O)c1ccc(-n2cccn2)nn1 | 0
COCCCNC(=O)CCc1c(-c2ccc(F)cc2)nc2ccccn12 | 0
Cc1nnc(-c2cn(CC(=O)Nc3cccc(F)c3)c3ccccc23)o1 | 0
CC1(c2noc(C3CC3)n2)CCN(C(=O)CCc2cc(Cl)no2)CC1 | 1
Cc1nc([C@@H]2CN(Cc3ccc(Br)o3)C[C@H]2C(N)=O)n[nH]1 | 0
CCc1cccc(NC(=O)CN2C(=O)CCc3cc(S(=O)(=O)N4CCCCC4C)ccc32)c1 (centres undefined) | 1
Cc1cc(N2CCC(NC(=O)Nc3ccc(F)cc3F)C2=O)ccc1F (centres undefined) | 1
O=C(c1ccco1)N1CCN(c2ccc(=O)n(-c3ccccc3)n2)CC1 | 0
COc1ccc(OC)c(NC(=O)CN2CCc3[nH]c4c(C)cc(F)cc4c(=O)c3C2)c1 | 0
COc1ccc(NC(=O)Nc2nccn(-c3ccc(C)c(C)c3)c2=O)cc1OC | 1
CCCCCCN1CCN(c2cccc(Cl)c2)CC1 | 0
CNC(=O)[C@@H]1C[C@H](Oc2ccccc2)CN1C(=O)c1ccoc1 | 0
CNC(=O)c1cc[nH]c1C1CCCN(C(=O)C2CC=CCC2)C1 (centres undefined) | 0
CCn1cc(S(=O)(=O)N2CCC(c3noc(-c4ccncc4)n3)C2)cn1 (centres undefined) | 0
CCOC(=O)/C=C/c1c(C)[nH]c(=O)[nH]c1=O | 0
CCCn1c(=O)c2sc(N3CCCC3)nc2n(CC(=O)NCc2cccs2)c1=O | 0
CCCNC(=O)N1CCC(c2noc(-c3ccncc3)n2)C1 (centres undefined) | 0
Cc1nn(CC(=O)NCC2CCCO2)c(=O)c2nn(-c3ccccc3)c(C)c12 (centres undefined) | 0
O=C1[C@H]2CCCC[C@H]2C(=O)N1CCCCN1CCN(c2nsc3ccccc23)CC1 | 0
O=c1ccc(-n2cccn2)nn1CCNS(=O)(=O)c1ccc(F)c(Cl)c1 | 0
CN(Cc1ccco1)C(=O)CC1CCN(C(=O)c2cc3cc(Cl)ccc3[nH]2)CC1 | 1
COc1ccc(CC(=O)N2CCC3(CC2)NC(=O)c2cccc(Cl)c2N3)cc1 | 0
COc1ccccc1NC(=O)CSc1cc(N2CCN(c3ccccc3OC)CC2)ncn1 | 1
Cc1[nH]c2ccc(-c3nnc(SCC(=O)NC(C)c4nc5ccccc5[nH]4)o3)cc2c1C (centres undefined) | 0
O=C(NCCc1ccccn1)C1CCc2nc(N3CCCCC3)ncc2C1 (centres undefined) | 0
COc1cccc(-n2c(N3CCC(C(=O)NCC4CC4)CC3)nc3ccsc3c2=O)c1 | 0
Cc1cc(N2CCN(C(=O)COc3ccc(Cl)cc3)CC2)nc2nnc(C)n12 | 0
COc1ccc2c(c1)C1(CCN(C(=O)c3cccc(C)c3)C1)C(=O)N2 (centres undefined) | 0
O=C(NCc1cccnc1)c1cccn1Cc1noc(-c2ccc(Cl)cc2)n1 | 0
